Catalogue of pIC50 values
tested on: MOLT-4; test: Cytotoxicity was evaluated against human MOLT-4 T-lymphoblasts (presence of 10 uM 2'-deoxyguanosine (W/GdR)); format: functional, cell-based
pIC50: −log10 of the molar value.
Reported Endpoint: pIC50

1) Nc1nc2[nH]c(N)nc2c(=O)[nH]1 | 5.63
2) Nc1nc(O)c2nc(N)n([C@@H]3O[C@H](CO)[C@@H](O)[C@H]3O)c2n1 | 5.49

====

Biological target: Purine nucleoside phosphorylase (Homo sapiens)
Sequence (P00491 whole entry): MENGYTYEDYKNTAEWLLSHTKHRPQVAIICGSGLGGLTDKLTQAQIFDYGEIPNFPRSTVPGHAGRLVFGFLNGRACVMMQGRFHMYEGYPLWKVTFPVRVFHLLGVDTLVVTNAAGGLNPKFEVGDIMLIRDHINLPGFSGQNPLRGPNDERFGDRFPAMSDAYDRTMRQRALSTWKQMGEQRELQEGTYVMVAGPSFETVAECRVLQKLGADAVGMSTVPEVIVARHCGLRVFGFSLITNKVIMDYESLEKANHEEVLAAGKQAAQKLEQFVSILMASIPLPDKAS
Experiment: Compound was evaluated for 50% inhibition of purine nucleoside phosphorylase activity by was measured by the conversion of [8-14C]-inosine to [8-14C]-hypoxanthine
Reported Endpoint: IC50

1) Nc1nc2nc(N)sc2c(=O)[nH]1 | ~330 µM
2) Nc1nc2sc(N)nc2c(=O)[nH]1 | 142 µM
3) Nc1nc2[nH]c(N)nc2c(=O)[nH]1 [8-AMINOGUANINE] | 1.55 µM
